target: human cannabinoid CB2 receptor (Homo sapiens, UniProt P34972); construct: expressed in transfected cells; host or cells: Saccharomyces cerevisiae strain MMY23 (cassette integrated at the ura3 locus, GPD promoter); assay: Cannabinoid CB2 receptor agonist activity in yeast (Saccharomyces cerevisiae) cells expressing the receptor, FDGlu fluorescence readout; format: cell-based
Sequence (P34972 whole entry): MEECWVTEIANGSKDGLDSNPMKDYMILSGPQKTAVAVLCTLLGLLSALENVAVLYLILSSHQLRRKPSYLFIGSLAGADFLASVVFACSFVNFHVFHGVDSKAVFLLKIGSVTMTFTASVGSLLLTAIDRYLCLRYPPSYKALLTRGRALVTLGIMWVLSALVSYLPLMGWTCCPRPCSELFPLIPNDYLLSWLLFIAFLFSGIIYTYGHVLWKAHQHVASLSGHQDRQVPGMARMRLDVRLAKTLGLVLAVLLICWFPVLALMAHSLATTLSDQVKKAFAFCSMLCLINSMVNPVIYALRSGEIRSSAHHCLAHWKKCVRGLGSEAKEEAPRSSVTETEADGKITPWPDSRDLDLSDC
pEC50: −log10 of the molar value.
Property: pEC50; scope: individual compounds

Smiles notation	pEC50
CC(C)c1cc(Nc2ccc(Cl)cc2F)ncc1C(=O)NCc1ccc(F)cc1	> 6.52
Cc1c(Br)cccc1Nc1cc(C(C)C)c(C(=O)NCc2ccc(F)cc2)cn1	6.00 to 6.52
O=C(NCc1ccccc1)c1cnc(Nc2cccc(Cl)c2)cc1C(F)(F)F	> 6.52
CC(C)c1cc(Nc2ccc(Cl)c(Cl)c2)ncc1C(=O)NCc1ccc(F)cc1	6.00 to 6.52
CC(C)c1cc(Nc2ccc(C#N)c(Cl)c2)ncc1C(=O)NCc1ccc(F)cc1	> 6.52

These measurements were taken from patent US20070129367A1.
